# assay protocol: yeast display, Sf9 membrane polyspecificity reagent, FACS + sequencing; frameworks hold sequencing errors
value kind: polyreactivity (PSR sort gate)

Example entries and their recorded answers appear below.
QVQLVESGGGLVQAGGSLRLSCAASGSTYRYTMGWYRQAPGKERELVAAITGSAGRTYYADSVKGRFTISRDNAKNTVYLQMNSLKPEDTAVYYCNKDRPRKFWDYYYWGQGTQVTVSS; high polyreactivity
QVQLVESGGGLVQAGGSLRLSCAASGSTFVRYDMGWYRQAPGKERELVADISWSGVSTYADSVKGRFTISRDNAKNTVYLQMNSLIAEDTAVYYCAKDSDLYQRGGYYWGQGTQVTVSS; low polyreactivity
QVQLVESGGGLVQAGGSLRLSCAASGRTIVYNAMGWYRQAPGKESELVAAITSGGRTYYADSVKGRFTISRDNAKNTVYLQMNSVKPEDTAVYYCATDYYGPDYPLDYWGQGTQVTVSS; low polyreactivity
QVQLVESGGGLVQAGGSLRLSCAASGRTFSTYAMGWYRQAPGKERELVATIRGSGSSTYYADSVKGRFTISRDNAKNTVYLQMNSLKPEDTAVYYCAKDNNRWRYLRYGSWGQGTQVTVSS; high polyreactivity
QVQLVESGGGLVQAGGSHRLSCAASGITFRRYAMGWYRQAPGKERELVARITDRGSTYYADSVKGRFTSSRDNAKNTVYLQMNSLKPEDTAVYYCAARGYRGLVQLRYGYWGQGTQVTVSS; high polyreactivity
QVQLVESGGCLVQAGGSLRLSCAASGSTLIEYAMGWYRQAPGKESELVARISKSGDSTYYADSVKGRFTISRDNAKNTVYLQMISLKPEDTAVYYCAKYHRDGFYRSYLRTFDFGYWGQGTQVTVSS; low polyreactivity
QVQLVESGGGLVQAGGSLRLSCAASGRIFWYYAMGWSRQAPGKERELVATISSRSGSTYYADSVKGRFTISRDNAKNTVYLQMNSLKPEDTAVYYCAAGTPYYLGYRHNTGLFDYWGQGTQVTVSS; high polyreactivity
QVQLVESGGGLVQAGGTLRLRCAASGFTFRYYVMRWYRQAPGKERELVAAITSGGSTNYADSVKGRFSISRDNAQNTVYLLMNSLKPEDTAVYYCAAGLSYRHNYWGQGTQVTVSS; low polyreactivity

# ---- query sequence ----
Specify measured polyreactivity (PSR sort gate) for QVQLVESGGGLVQAGGSLRLSCAASGRIFRTKAMGWYRLAPGKERELVAAITFSGGGTYYADSVKGRFTISRDNAKNTVYLQMNSLKPEDTAVYYCATDWYYEYYYWGQGTQVTVSS .
low polyreactivity

---

# assay protocol: yeast display, Sf9 membrane polyspecificity reagent, FACS + sequencing; frameworks hold sequencing errors
value kind: polyreactivity (PSR sort gate)

Example entries and their recorded answers appear below.
QVQLVESGGGLVQAGGSLRLSCAASGFTFVPYAMGWYRQAPGKERELVAAISYSGGSRYYADSVKGRFTISRDNAKNTVYLQMNSLKPEDTAVYYCAALRWYHYGYWGQGTQVTVSA; high polyreactivity
QVQLVESGGGLVQAGGSLRLSCAASGRIFYTNAMGWYRQAPGKERELVAGITGSGDSTYYADSVKGRFTISRDNAKNTVYLQMNSLKPEDTAVYYCAARWRYVLMDYWGQGTQVTVSS; low polyreactivity
QVQLVESGGGLVQAGGSLRLSCAASGRIFARNAMGWYRQAPGKERELVAAISWSGGRTYYADSVKGRFTISRDNAKNTVYLQMNSLKPEDTAVYYCAADHYPWWAWEFDYWGQGTQVTVSS; low polyreactivity
QVQLVESGGGLVQAGGSLRLSCAASGRILYYNDMGWYRQAPGKERELVAAIDRGGSTSYADSVKGRFTISRDNAMNTVYLQMNSLKQEDTAVYYCAVARGGRRKYEYWGQGTQVTVSS; low polyreactivity
QVQLVESGGGLVQAGGSLRLSCAASGRILYKYAMGWYRQAPGKERELVAAISWRGTTTYYADSVKGRFTISRDNAKNTVYLQMNSLKPEDTAVYYCAKDRSYGYFSRPVSQYDYWGQGTQVTVSS; high polyreactivity

# ---- query sequence ----
Specify measured polyreactivity (PSR sort gate) for QVQLVESGGGLVQAGGSLRLSCAASGFIIRSYAMGWYRQAPVKERELVAAISRGSRTYYADSVKGRFTISRDNAKNTVYLQMNSLKPEDTAVYYCNADPNVPVETFDYWGQGTQVTVSS .
high polyreactivity

---

# assay protocol: yeast display, Sf9 membrane polyspecificity reagent, FACS + sequencing; frameworks hold sequencing errors
value kind: polyreactivity (PSR sort gate)

Example entries and their recorded answers appear below.
QVQLVESGGGLVQAGGSLRLSCAASGRIFGVYAMGWYRQAPGKERELVAAIYSGSSTYYADSVKGRFTISRDNAKNTVYLQMNSLKPEDTAVYYCNADTPYWVRWKYDYWGQGTQVTVSS; low polyreactivity
QDQLVESGGGLVQPGGSLRLSCAASGITFYYYTMGWYRQAPGKERELVAGITRGGRTYYADSVKGRFTISRDNAKNTVYLQMNSLKPVDSAVYYCNADPWWRFDYWGQGTQVTVSS; low polyreactivity
QVQLVESGGGLVQAGGSLRLSCAASGSIFAGYAMGLYRQAPGKERELVAAISRSGDSTYYADSVKGRFTISRDNAKNTVYLQMNSLKPEDTAVYYCAAVLSYSYVRYNYWGQGTQVTVSS; high polyreactivity
QVQLVETGGGIVQAGGRLRLTCAASGSSFYSYAMGWYRQAPGKEMELVAAITTSGGNTLYADSVKGRFTISRDNAKNTVDLQMNSLKPEDTADYYCAADVFRGGDYEYDYWGQGTQVTVSS; low polyreactivity
QVQLVESGGGLVQAGGSLRLSCAASGRIFGHNAMGWYRQAPGKERELVARISSTGSTKYADSVKGRFTISRDNAKNTVYLQMNSLKPEDTAVYYCAAYIIRWKGSSYYWGQGTQVTVSS; high polyreactivity

Specify measured polyreactivity (PSR sort gate) for QVQLVESGGGLVQAGGSLRLSCAASGRTFRLYAMGWYRQAPGKERELVAAITFRGGRTYYADSVKGRFTISRDNAKNTVYLQMNSLKPEYTAVYYCNAVTYSSPYRFDYWGQGTQVTVSS .
low polyreactivity

Specify measured polyreactivity (PSR sort gate) for QVQLVESGGGLVQAGCSLRLSCAASGGTFGRYAMGWYRQAPGTERELVASITTGGRTNYADSVKGRFTISRDNAKNTVYLQMNSLKPEDTAVYYCAKKRYGYPVPFYYWGQGTQVTVSS .
high polyreactivity

Specify measured polyreactivity (PSR sort gate) for QVQLEDSGGGLVQAGGSLRLSCAASGITVFYYAMGWSRQAPGKERELVATMSWGGDSTYSADSVKGRFTISRDNAKNTVYLQMNSLKPEDTAVYYCAARYWFFRFWYDYWGQGTQVTVSS .
high polyreactivity

Specify measured polyreactivity (PSR sort gate) for QVQLVESGGGLVQAGGSLRLSCAASGSIFYRNAMGWYRQATGKERELVAAISASGGSTYYADSVKGRFTISRDNAKNTVYLQINSLKPEDTAVYYCAVEYRKSRSYYPYYYWGQGTQVTVSS .
high polyreactivity

---

# assay protocol: yeast display, Sf9 membrane polyspecificity reagent, FACS + sequencing; frameworks hold sequencing errors
value kind: polyreactivity (PSR sort gate)

Example entries and their recorded answers appear below.
QVQLVESGGRLVQSGGSLRLICAASGQIFQWYAMGWYRQAPGKETELVAAISSGDSTYYADSVTGRFTISRDNAKNTVYLDMNSLKPEDTAVDYCNARAIGWRIYDYWGQGTEVTVSS; high polyreactivity
QVQLVESGGGLVQAGGSLRLSCAASGSIFNYYAMGWYRQAPGKERELVATITRGGSTYYADSVKGRFTISRDNAKNTVYLQMNRLKPEDTAVYYCAKVGRSTAYQNGYDYWGQGTQVTVSS; low polyreactivity
QVQLVESGGGLVQAGGSLRLSCAASGSIFYAYAMGWYRQAPGKERELVATITSGGSTNYADSVKGRFTISRDNAKNTVYLQMNSLKPEDTAVYYCAVDISYSLGGGFGYDYWGQGTQVTVSS; low polyreactivity
QVQLVESGGGLVQAGGSLRLSCAASGSTFIIYAMGWYRQAPGKERELVAAISWSGGSTYYADSVKGRFTISRDNAKNTVYLQMNSLKPEDTAVYYCNAARYYTPWRTWYDYWGQGTQVTVSS; high polyreactivity

Specify measured polyreactivity (PSR sort gate) for QVQLVESGGGLVQAGGSHRLSFAASGSIFWRNAMGWYRQAPGKERELVAVISGGSTYADSVKGRFTISRDNAKNTVYLKMNSLKPEDTAVYFCNADLYVSSYPKGYDYWGQGTQVTVSS .
low polyreactivity

Specify measured polyreactivity (PSR sort gate) for QVQLVESGGGLVQAGGSLRLSCAATGRTFYVNAMGWYRQAPGLEREFVARITSGGSTYYADSVKGRFTISPDKAKNTVYVQKNSLKPEDTAVYYCAADYVSLSVFSYCAWYDYWGQGTQVTVSS .
low polyreactivity

Specify measured polyreactivity (PSR sort gate) for QVQLVESGGGLVQAGGSLRLSCASSGFTFSRNVMGWYRQAPGKETELVADITLSGASTYYADSVKGRFTISRDNAKNPDYLQMNSLKPEDTAVYYCAADPYHWRWGWRHVYWGQGTQVTVSS .
low polyreactivity

Specify measured polyreactivity (PSR sort gate) for QVQLVESGGGLVQAGGSLRLSCAASGFTFITNAMGLYRQAPGKERELVASISIGGSTNYADSVKGRFTISRDNAKNTVYLQMNSLKPEDTAVYYCAARVYRRLFLPGRYGRPLGYWGQGTQVTVSS .
high polyreactivity

Specify measured polyreactivity (PSR sort gate) for QVHLVESGGALVQAGASLRLSCAASGFTYGLYSMGWYRQAPGKERELVAVISSSGGSTYYADSVKGRFTISRDNAKNTVYLQMNRLKPEDTAVYYCAAEWLDYKFDVSYDYWGQCTQVTVSS .
low polyreactivity
